Target: human ferroportin-GFP (Homo sapiens, UniProt Q9NP59)
Sequence (Q9NP59 whole entry): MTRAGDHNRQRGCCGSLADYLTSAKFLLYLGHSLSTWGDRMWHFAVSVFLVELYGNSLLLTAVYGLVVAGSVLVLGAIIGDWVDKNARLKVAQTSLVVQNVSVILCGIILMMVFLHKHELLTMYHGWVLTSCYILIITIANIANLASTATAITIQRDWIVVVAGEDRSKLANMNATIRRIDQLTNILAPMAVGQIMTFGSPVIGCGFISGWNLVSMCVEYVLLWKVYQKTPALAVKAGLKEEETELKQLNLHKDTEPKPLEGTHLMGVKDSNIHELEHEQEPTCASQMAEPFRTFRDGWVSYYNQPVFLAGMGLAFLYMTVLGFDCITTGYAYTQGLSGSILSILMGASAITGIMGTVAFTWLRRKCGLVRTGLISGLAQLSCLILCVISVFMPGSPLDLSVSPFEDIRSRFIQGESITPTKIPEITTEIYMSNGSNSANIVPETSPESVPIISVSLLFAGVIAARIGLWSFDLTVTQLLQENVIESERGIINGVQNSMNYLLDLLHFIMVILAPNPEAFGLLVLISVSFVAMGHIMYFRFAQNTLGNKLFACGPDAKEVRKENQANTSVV
Experiment: cellular assay based on Fpn degradation (HEK293:TREX-Fpn-GFP cells, flow cytometry)
Format: cell-based
Details: peptide treatment 24 hours, loss of GFP fluorescence relative to Hep25, read-out: EC50 [nM] TREX-hFpn-GFP cells
Procedure: The S-alkylated hepcidin peptides were tested in vitro using a previously described cellular assay based on Fpn degradation. See e.g., Nemeth, et al. (2006) Blood 107: 328. […] Cells were then trypsinized and resuspended at 1×10^6 cells/mL, and the intensity of green fluorescence was analyzed by flow cytometry using FAC Scan (fluorescence activated cell scanner) Analytic Flow Cytometer (Becton Dickinson, San Jose, Calif.) with CellQuest version 3.3 software. […]
assayReadout: DC50 (nM)
Please respond with the number in nM and leave the unit unwritten.

compound	assayReadout	readoutUnit	value
CCCCCCCCCCCCCCCCNC(=O)CN(CC(N)=O)C(=O)CCCCCNC(=O)C[C@H](Cc1ccccc1)NC(=O)[C@H](CCCNC(=N)N)NC(=O)[C@H](CSC(=CC(=O)OC)C(=O)OC)NC(=O)[C@H](CCCNC(=N)N)NC(=O)C[C@@H]1CCCN1C(=O)[C@@H](NC(=O)[C@H](Cc1c[nH]cn1)NC(=O)[C@@H](NC(=O)CNCC(=O)O)[C@@H](C)O)C(c1ccccc1)c1ccccc1 [PR73SC]	DC50	nM	12.6

Incoming: GET /values?readout=DC50&item= CCCCCCCCCCCCCCCCNC(=O)CN(CC(N)=O)C(=O)CCCCCNC(=O)C[C@H](Cc1ccccc1)NC(=O)[C@H](CCCNC(=N)N)NC(=O)[C@H](CSC(=CC(N)=O)C(N)=O)NC(=O)[C@H](CCCNC(=N)N)NC(=O)C[C@@H]1CCCN1C(=O)[C@@H](NC(=O)[C@H](Cc1c[nH]cn1)NC(=O)[C@@H](NC(=O)CNCC(=O)O)[C@@H](C)O)C(c1ccccc1)c1ccccc1 [PR73SG]
Outgoing: 8.4
